# Tested on: SNU-C4 xenografted nude mice
# protocol.description: Biodistribution study in SNU-C4 xenografted nude mice after intravenous injection
# Format: in vivo, mouse
# cond: SNU-C4 tumor, 1 hr after intravenous injection
observation.type: % ID/g Tumor (% ID/g)

In [3]: df
Out[3]:
                                   molecule  assay_value
0  NC(CNC(=O)CN1CCN(CC(=O)[O-])CCN(CC(=O)[O-])CC1)C(=O)[O-].[68Ga+3] (stereo not shown) [^68Ga-NOTA-ala]         0.73
1  O=C([O-])CN1CCN(CC(=O)[O-])CCN(CC(=O)O)CCN(CC(=O)[O-])CC1.[68Ga+3] [^68Ga-DOTA, reference compound]         0.60

(P) N[C@@H](CN1CCN(CC(=O)[O-])CCN(CC(=O)[O-])CCN(CC(=O)[O-])CC1)C(=O)O.[68Ga+3] (stereo in doubt) [^68Ga-DO3A-ala]
(Q) O=C([O-])CN1CCN(CC(=O)[O-])CCN(CC(=O)[O-])CC1.[68Ga+3] [^68Ga-NOTA, reference compound]
Returns: the argument ( P or Q ) having the larger % ID/g Tumor. Kindly state the label of the option you pick.
P

====

# Tested on: SNU-C4 xenografted nude mice
# protocol.description: Biodistribution study in SNU-C4 xenografted nude mice after intravenous injection
# Format: in vivo, mouse
# cond: blood, 10 min after intravenous injection
# Description: Human colon cancer cell line SNU-C4 was cultured in RPMI1640 media containing 10% fetal bovine serum and harvested using trypsin. The cells were washed using 10 mL PBS and centrifugation at 3,000 rpm. […] The injected mice were sacrificed at 10 min, 30 min, 1 hr, and 2 hr, cancer, blood, muscle, heart, liver, spleen, stomach, intestine, and bone were obtained, weighed, and their radioactivities were counted. The results were expressed as percentages of injected dose per gram tissue (% ID/g).
observation.type: % ID/g Blood (% ID/g)

The examples below pair each entry with its known result.
>>> print(df.to_string())
                                   compound  observation_type  unit_name  assay_value
0  O=C([O-])CN1CCN(CC(=O)[O-])CCN(CC(=O)O)CCN(CC(=O)[O-])CC1.[68Ga+3] [^68Ga-DOTA, reference compound]      % ID/g Blood     % ID/g         7.52
1  NC(CNC(=O)CN1CCN(CC(=O)[O-])CCN(CC(=O)[O-])CCN(CC(=O)[O-])CC1)C(=O)O.[68Ga+3] (centres unmarked) [^68Ga-DOTA-ala]      % ID/g Blood     % ID/g         7.87
2  NC(CN1CCN(CC(=O)[O-])CCNCCN(CC(=O)[O-])CC1)C(=O)[O-].[68Ga+3] (centres unmarked) [^68Ga-DO2A-ala]      % ID/g Blood     % ID/g         7.75
3  O=C([O-])CN1CCNCCN(CC(=O)[O-])CCNCC1.[68Ga+3] [^68Ga-DO2A, reference compound]      % ID/g Blood     % ID/g         7.82
4  O=C([O-])CN1CCNCCN(CC(=O)[O-])CCN(CC(=O)[O-])CC1.[68Ga+3] [^68Ga-DO3A, reference compound]      % ID/g Blood     % ID/g         6.96

(a) N[C@@H](CN1CCN(CC(=O)[O-])CCN(CC(=O)[O-])CCN(CC(=O)[O-])CC1)C(=O)O.[68Ga+3] (stereo in doubt) [^68Ga-DO3A-ala]
(b) O=C([O-])CN1CCN(CC(=O)[O-])CCN(CC(=O)[O-])CC1.[68Ga+3] [^68Ga-NOTA, reference compound]
Field: entry with larger % ID/g Blood (options a / b ). Kindly state the label of the option you pick.
a
(a: 11.12 % ID/g, b: 7.13 % ID/g)
